For each entry below, report its GI50 value.
# Test system: Malme-3M
# assayNotes: NCI tumour cell line growth inhibition, 48 h
Active and inactive are the calls of the source. Rule as the data show it: active = GI50 up to about 1.1 µM and inactive = higher.

Nc1ccc(-c2nc3ccccc3s2)cc1Br
> 100 µM (inactive)
COc1ccc2nc3ccc(OC)cc3c([S+]([O-])Cc3ccccc3)c2c1 (configuration not stated)
2.42 µM (inactive)

Hi team, please reply with GI50 for each item in this list.
1. O=C(Nc1cc2cc([N+](=O)[O-])ccc2oc1=O)c1cccs1
2. CCC1([N+](=O)[O-])CN(N=O)C1
3. C[C@@H](NC(C#N)c1ccco1)c1ccccc1 (some centres not stated)
4. O=C1c2ccccc2C(=O)c2[nH]c(Cc3ccc(F)cc3)nc21

1. > 100 µM (inactive)
2. > 100 µM (inactive)
3. > 100 µM (inactive)
4. 14.5 µM (inactive)

----------
# System: RXF 631
# assayNotes: NCI tumour cell line growth inhibition, 48 h
Calls of active or inactive are those of the source. Rule as the data show it: active = GI50 up to about 1.1 µM and inactive = higher.
For each entry below, report its GI50 value.

CN(C)/C=C/C(=CC=[N+](C)C)/C=C/N(C)C.[O-][Cl+3]([O-])([O-])[O-]
> 100 µM (inactive)
COc1cccc2nc3c(C(=O)NCCN(C)C)cccc3nc12
10.8 µM (inactive)
O=CC1=CCCC2(C1)OCCO2
> 100 µM (inactive)
CCOC(=O)C1(C(=O)OCC)C(C(C)(C)C)=C(C)c2ccccc21
13.7 µM (inactive)
O=C1c2ccccc2C(=O)c2[nH]c(Cc3ccc(F)cc3)nc21
15.9 µM (inactive)

Hi team, please reply with GI50 for each item in this list.
1. N#C/C(=C\c1ccc(O)c(O)c1)C(N)=O
2. CC#CC#C/C=C1\C=CC2(OC=CC2OC(C)=O)O1 (configuration not stated)
3. COc1ccc(NC(=O)CC/C(CC(=O)C(C)(C)C)=N\NC(=O)C(=O)NN)cc1

56 µM (inactive)
14.5 µM (inactive)
> 100 µM (inactive)

----------
# Test system: CCRF-CEM
# assayNotes: NCI tumour cell line growth inhibition, 48 h
The source made the active and inactive calls. No stated cut-off is given here; in the data, active = GI50 up to about 1.1 µM and inactive = higher.
For each entry below, report its GI50 value.

# count of solved cases: 4
O=c1c(F)cn(Cc2c(Cl)cccc2Cl)c(=O)n1Cc1c(Cl)cccc1Cl
27 µM (inactive)
COC[C@H]1OC(=O)c2coc3c2[C@@]1(C)C1=C(C3=O)[C@@H]2CCC(=O)[C@@]2(C)C[C@H]1OC(C)=O
1.38 µM (inactive)
CCN(CC)CC1CCCCN1CC(=O)N1CC(C)C(=O)Nc2ccccc21 (centres undefined)
> 100 µM (inactive)
COc1cc(Cl)cc(N(O)C(C)=O)c1OCc1ccccc1
38.1 µM (inactive)

Hi team, please reply with GI50 for each item in this list.
1. CC1=CC(=O)/C(=C/NC(=S)C(N)=S)C(=O)O1
2. Cc1ccccc1NC(=O)c1ccc([N+](=O)[O-])cc1
3. C[C@H]1C(=O)c2c(cc(O)c(C3OC(CO)C(O)C(O)C3O)c2O)OC1c1ccc(O)c(O)c1 (some centres undefined)

["44 µM (inactive)", "> 100 µM (inactive)", "> 100 µM (inactive)"]

Hi team, please reply with GI50 for each item in this list.
1. C=C1CCCC2[C@](C)(CC3=C(O)C(=O)C=C(OC)C3=O)[C@@H](C)CC[C@]12C (some centres undefined)
2. CCN(CC)c1ccc2cc(-c3csc(-c4ccc(N(C)C)cc4)n3)c(=O)oc2c1

["2.36 µM (inactive)", "> 100 µM (inactive)"]

----------
For each entry below, report its GI50 value.
# System: DMS-273
# assayNotes: NCI tumour cell line growth inhibition, 48 h
Active and inactive are the calls of the source. No stated cut-off is given here; in the data, active = GI50 up to about 1.1 µM and inactive = higher.

# count of solved cases: 5
C=C1C2CC(OC(C)=O)C3(C)C(c4ccoc4)OC(=O)[C@@H](O)[C@]13OC1C[C@H](OC(C)=O)C(C)(C)[C@H](CC(=O)OC)[C@]12C (some centres undefined)
> 100 µM (inactive)
CCOCC(=O)N(C)c1cccc2c3c(n(C)c12)CCCCC3
> 31.6 µM (inactive)
NC(=S)N/N=C1/C(=O)N(c2ccc(Cl)cc2Cl)C(=O)C(=O)C1c1nc2ccccc2s1 (centres undefined)
> 100 µM (inactive)
O=[N+]([O-])c1ccc(CNC2=NNS(=O)(=O)c3ccccc32)cc1
> 100 µM (inactive)
C#C[C@]1(O)CC[C@H]2[C@@H]3CCc4cc(O)ccc4[C@H]3CC[C@@]21C
> 10 µM (inactive)

Hi team, please reply with GI50 for each item in this list.
1. CC1(CO)C(O)CCC2(C)C1C(O)CC1CC3CC12CCC3(O)CO (centres undefined)
2. CN(C(=O)C12C3C4C1C1C2C3C41I)C(C)(C)C (centres undefined)

1. 104 µM (inactive)
2. 47 µM (inactive)

Hi team, please reply with GI50 for each item in this list.
1. COc1ccc(/C=C/C(=O)c2cc(C(=O)O)c(OC)cc2OC)cc1OC
2. COc1cc(CCc2ccc(N)cc2)cc(OC)c1OC

1: > 100 µM (inactive); 2: 37.9 µM (inactive)

----------
# Test system: T47D
# assayNotes: NCI tumour cell line growth inhibition, 48 h
Activity calls are given as the source filed them. No stated cut-off is given here; in the data, active = GI50 up to about 1.1 µM and inactive = higher.
Hi! Could you answer with just one of these? active, inactive

Worked examples follow.
O=S(=O)(O)c1cc(S(=O)(=O)O)c2c(/N=N/c3ccc(S(=O)(=O)O)c4ccccc34)c(O)ccc2c1
inactive
Cc1cc(S(=O)(=O)Nc2nc(N)n[nH]2)c(SCC(=O)O)cc1Cl
inactive
O=C1Sc2cc3ccccc3cc2C(=O)Sc2cc3ccccc3cc21
inactive

Call for entry Cc1cc2nc(C=C(C(F)(F)F)C(F)(F)F)oc2cc1C :
inactive

Call for entry NC(=O)N/N=C/c1ccccc1O :
inactive

Call for entry Cn1nnc2c3c(N(CCO)CCO)ccnc3ccc21 :
inactive

Call for entry CC#CC#C/C=C1\C=CC2(OC=CC2OC(C)=O)O1 (stereo unspecified) :
inactive

----------
# Test system: KM-20L2
# assayNotes: NCI tumour cell line growth inhibition, 48 h
The source made the active and inactive calls. Rule as the data show it: active = GI50 up to about 1.1 µM and inactive = higher.
Hi! Could you answer with just one of these? true (1) for active, false (0) for inactive

Worked examples follow.
c1ccc2c(c1)[nH]c1c2nc2ccccn21
false (0)
C=C1CCCC2[C@](C)(CC3=C(O)C(=O)C=C(OC)C3=O)[C@@H](C)CC[C@]12C (stereo partly specified)
false (0)
N#CC1(Cc2ccccc2[N+](=O)[O-])c2ccccc2C2C(N1C(=O)c1ccccc1)C2(Cl)Cl (stereo unspecified)
false (0)
COc1cc2c(cn1)[nH]c1ccccc12
false (0)
O=[N+]([O-])c1ccc(CNC2=NNS(=O)(=O)c3ccccc32)cc1
false (0)

Call for entry COC1CC(C)C(OC)c2cc(O)cc(c2O)NC(=O)/C(C)=C/C=C\C(C)C(OC(N)=O)/C(C)=C\C(C)C1OC (stereo unspecified) :
true (1)

Call for entry [N-]=[N+]=C1C(=O)C2CC3CC1CC2C3 (stereo unspecified) :
false (0)

Call for entry O=C(c1ccco1)N(C(=S)N1CCN(c2ccccc2)CC1)C1CCCCC1 :
false (0)

----------
# Tested on: SF-268
# assayNotes: NCI tumour cell line growth inhibition, 48 h
Calls of active or inactive are those of the source. No stated cut-off is given here; in the data, active = GI50 up to about 1.1 µM and inactive = higher.
Hi! Could you answer with just one of these? Y = active, N = inactive

Worked examples follow.
CNC(=O)Nc1cc2c3c(c1)CCCN3CCC2
N
COc1cc2ccc3ccncc3c2cc1OC
N
Cc1cc2[nH]c3[nH]c(=O)[nH]c(=O)c3c2cc1C
N
N#CC1(C#N)C2CCCCC23OC(=N)C1(C#N)C(c1ccccc1)O3 (configuration not stated)
N
Cc1ccc(-n2nnc(C(N)=O)c2O)cc1
N

Call for entry CC(=O)O[C@@]1(C)[C@@H](C)C(=O)O[C@@H]2CCN3CC=C(COC(=O)[C@]1(C)O)[C@H]23 :
N

Call for entry COc1cc([C@H]2Oc3c(c(O)cc4oc(-c5ccccc5)cc(=O)c34)O[C@@H]2CO)ccc1O :
N

Call for entry c1csc(-c2cscc2-c2cccs2)c1 :
N

Call for entry O=[N+]([O-])c1ccc(/C(Cl)=C/c2ccc(/C=C(\Cl)c3ccc([N+](=O)[O-])cc3[N+](=O)[O-])cc2)c([N+](=O)[O-])c1 :
N

Call for entry O=[N+]([O-])c1ccc(CNC2=NNS(=O)(=O)c3ccccc32)cc1 :
N

Call for entry COC(=O)C(=O)C(C(=O)C(=O)Nc1cc(C)ccc1C)c1nc2ccc(C(=O)c3ccccc3)cc2nc1O (configuration not stated) :
N

Call for entry CC1(C)O[C@H](C(=O)O)[C@@H](C(=O)O)O1 :
N

Call for entry CC(C)/C(Cl)=N\OC(=O)Nc1ccccc1F :
N

Call for entry O=[N+]([O-])c1cccnc1-n1cnc2ccccc21 :
N

Call for entry O[C@H]1[C@H](O)[C@@H](O)[C@@]2(O)C[C@@H](O)[C@@H]1N2 :
N

Call for entry COc1cc(Nc2nc3cc(C(F)(F)F)ccc3nc2C)cc(OC)c1OC :
N

Call for entry CCS(=O)(=O)c1c2cc(OC)ccc2nc2ccc(OC)cc12 :
N

Call for entry COc1ccc(/C(=N\Nc2ccccn2)c2ccccn2)cc1 :
Y

Every entry's value here was drawn from ChEMBL document CHEMBL1201862.
